Reference source: patent EP0558245A1

Give measured IC50 for each item. Keep answers brief.
Molecular target: 5HT1A receptors (Rattus norvegicus)
Construct: Rat hippocampi were homogenized; from tissue; host or cells: rat hippocampus membranes
Sequence (P19327 1-422): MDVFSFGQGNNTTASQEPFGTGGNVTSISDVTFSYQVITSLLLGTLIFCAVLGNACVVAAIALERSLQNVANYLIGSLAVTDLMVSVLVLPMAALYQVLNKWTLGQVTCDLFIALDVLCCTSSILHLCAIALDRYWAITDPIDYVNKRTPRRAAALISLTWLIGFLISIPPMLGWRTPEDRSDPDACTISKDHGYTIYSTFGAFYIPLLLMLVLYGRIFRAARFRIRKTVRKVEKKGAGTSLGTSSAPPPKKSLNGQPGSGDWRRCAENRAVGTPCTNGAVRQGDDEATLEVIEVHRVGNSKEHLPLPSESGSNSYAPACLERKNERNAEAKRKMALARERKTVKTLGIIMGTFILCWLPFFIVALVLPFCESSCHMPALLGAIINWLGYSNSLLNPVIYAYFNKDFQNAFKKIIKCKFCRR
Assay: [3H]8-OH-DPAT binding (5HT1A receptors), rat hippocampus membranes
Conditions: rat hippocampus crude membranes, [3H]8-OH-DPAT 1.0 nM, 25°C 30 min; read-out: Receptor Binding IC50 (nM) 5-HT1a
Structures can show the parent of a compound that is named as a salt.
Answers are plain numbers, in nM.

The examples below pair each entry with its known result.
CCOC(CN1CCN(c2ccccc2OC)CC1)c1cccc2c(=O)c(C)c(-c3ccccc3)oc12.Cl (stereo not shown) [Example 22, hydrochloride] :: 48
COc1ccccc1N1CCN(CCCNC(=O)c2cccc3c(=O)c(C)c(-c4ccccc4)oc23)CC1 [Example 11, dihydrochloride hemihydrate] :: 9
COc1ccccc1N1CCN(CC/C=C/c2cccc3c(=O)c(C)c(-c4ccccc4)oc23)CC1 :: 116
COc1ccccc1N1CCN(CCC(=O)Nc2cccc3c(=O)c(C)c(-c4ccccc4)oc23)CC1.Cl [Example 37, hydrochloride] :: 77

Give measured IC50 for every item shown.
1. COc1ccccc1N1CCN(CCCC(O)c2cccc3c(=O)c(C)c(-c4ccccc4)oc23)CC1.Cl.O (stereo not shown) [Example 21, hydrochloride monohydrate]
2. COc1ccccc1N1CCN(CCSCc2cccc3c(=O)c(C)c(-c4ccccc4)oc23)CC1.Cl [Example 29, hydrochloride]
3. COc1ccccc1N1CCN(CCOC(=O)/C=C/c2cccc3c(=O)c(C)c(-c4ccccc4)oc23)CC1

Marked response:
1: 33; 2: 45; 3: 141

---

Assay: Acute toxicity in mice after intraperitoneal and oral administration
Conditions: mouse, in vivo, po; read-out: Acute Toxicity in Mice LD50 (mg/kg) p.o.
MEASURE: LD50 at 168 h (mg/kg)
Give bare numbers, in mg/kg.

Exam item: // Input: COc1ccccc1N1CCN(CCCCOc2cccc3c(=O)c(C)c(-c4ccccc4)oc23)CC1.Cl.Cl . Output its LD50 at 168 h only.
Marked response: 2240

---

Experiment: Acute toxicity in mice after intraperitoneal and oral administration
Settings: mouse, in vivo, ip; read-out: Acute Toxicity in Mice LD50 (mg/kg) i.p.
MEASURE: LD50 at 168 h (mg/kg)
Give bare numbers, in mg/kg.

Exam item: // Input: COc1ccccc1N1CCN(CCCCOc2cccc3c(=O)c(C)c(-c4ccccc4)oc23)CC1.Cl.Cl . Output its LD50 at 168 h only.
Marked response: 399

---

Give measured IC50 for each item. Keep answers brief.
Tested on: rat bladder strips
Test: K+-induced contractions of rat bladder strips
Type: cell-based
Conditions: 80 mM KCl, tonic contraction, drug added 30 minutes before, read-out: K+ Stimulation of Rat Bladder IC50 (μM) Contractions Tonic
Description: The whole bladder of the rat was removed and immediately placed in Krebs solution warmed at 37°C. […] After having recorded two or more reproducible responses, one concentration of the tested drugs was added to the bath and 30 minutes later a new contraction was induced. […] The IC₅₀ values of inhibition of agonist-induced contractions were evaluated by linear regression analysis.
Structures can show the parent of a compound that is named as a salt.
Give bare numbers, in µM.

The examples below pair each entry with its known result.
COc1ccccc1N1CCN(CCNC(=O)c2cccc3c(=O)c(C)c(-c4ccccc4)oc23)CC1 [Example 13, monohydrochloride hemihydrate] :: 10
Cc1c(-c2ccccc2)oc2c(C(=O)OCCN3CCCCC3)cccc2c1=O [Flavoxate, reference compound] :: 13
COc1ccccc1N1CCN(CC(O)c2cccc3c(=O)c(C)c(-c4ccccc4)oc23)CC1.Cl (centres unmarked) [Example 17, hydrochloride] :: 3.8
COc1ccccc1N1CCN(CCCS(=O)(=O)c2cccc3c(=O)c(C)c(-c4ccccc4)oc23)CC1.Cl [Example 47, hydrochloride] :: 5.2
COc1ccccc1N1CCN(CCC(O)c2cccc3c(=O)c(C)c(-c4ccccc4)oc23)CC1.Cl (centres unmarked) [Example 20, hydrochloride] :: 2.5
COc1cccc(OC)c1OCCNCCOc1cccc2c(=O)c(C)c(-c3ccccc3)oc12.Cl [Example 44, hydrochloride] :: 0.5

Moving on to another molecule below.
Exam item: // Input: COc1ccccc1N1CCN(CCCNC(=O)c2cccc3c(=O)c(C)c(-c4ccccc4)oc23)CC1 [Example 11, dihydrochloride hemihydrate] . Output its IC50 only.
Marked response: 3

---

Molecular target: α₁ receptors
Experiment: [3H]prazosin binding (α1 receptors), rat cerebral cortex membranes
Conditions: rat cerebral cortex crude membranes, [3H]prazosin 0.35 nM, 25°C 30 min; read-out: Receptor Binding IC50 (nM) α1
Where a name gives a salt, the structure may show the parent alone.
MEASURE: IC50 (nM)
One number for each entry, in nM.

The examples below pair each entry with its known result.
COc1ccccc1N1CCN(CCNC(=O)Cc2cccc3c(=O)cc(-c4ccccc4)oc23)CC1 [Example 80, methanesulphonate hydrate] :: 28
COc1ccccc1N1CCN(CCCN(C(N)=O)c2cccc3c(=O)c(C)c(-c4ccccc4)oc23)CC1 [Example 50, methanesulphonate hemihydrate] :: 39
COc1ccccc1N1CCN(CCCNC(=O)c2c(OC)ccc3c(=O)c(C)c(-c4ccccc4)oc23)CC1 [Example 98] :: 103
COc1ccccc1N1CCN(CCC(=O)Nc2cccc3c(=O)c(C)c(-c4ccccc4)oc23)CC1.Cl [Example 37, hydrochloride] :: 32
COc1ccccc1N1CCN(CCCCNc2cccc3c(=O)c(C)c(-c4ccccc4)oc23)CC1 [Example 34, hydrochloride hemihydrate] :: 30
COc1ccccc1N1CCN(CCN(Cc2cccc3c(=O)c(C)c(-c4ccccc4)oc23)C(C)=O)CC1.Cl [Example 24, hydrochloride] :: 690
COc1ccccc1N1CCN(CCOC(=O)/C=C/c2cccc3c(=O)c(C)c(-c4ccccc4)oc23)CC1 [Example 79] :: 77
COc1ccccc1N1CCN(CCC(=O)c2cccc3c(=O)c(C)c(-c4ccccc4)oc23)CC1.Cl [Example 4, hydrochloride] :: 550

Give measured IC50 for every item shown.
1. COc1ccccc1N1CCN(CCCNC(=O)c2cccc3c(=O)c(C)c(-c4ccccc4)oc23)CC1 [Example 11, dihydrochloride hemihydrate]
2. COc1ccccc1N1CCN(CC(O)c2cccc3c(=O)c(C)c(-c4ccccc4)oc23)CC1.Cl (centres unmarked) [Example 17, hydrochloride]
3. CCOc1ccccc1N1CCN(CC(O)c2cccc3c(=O)c(C)c(-c4ccccc4)oc23)CC1.Cl (centres unmarked) [Example 19, hydrochloride]
4. Cc1c(-c2ccccc2)oc2c(C(=O)NCCCNCC3COc4ccccc4O3)cccc2c1=O (centres unmarked) [Example 52]
5. CS(=O)(=O)O.Cc1c(-c2ccccc2)oc2c(C(=O)NCCCN3CCC(c4ccccc4)(c4ccccc4)CC3)cccc2c1=O [Example 55]

Marked response:
1. 29
2. 59
3. 165
4. 89
5. 291

---

Target: 5HT1A receptors (Rattus norvegicus, UniProt P19327)
Construct: Rat hippocampi were homogenized; from tissue; host or cells: rat hippocampus membranes
Experiment: [3H]8-OH-DPAT binding (5HT1A receptors), rat hippocampus membranes
Settings: rat hippocampus crude membranes, [3H]8-OH-DPAT 1.0 nM, 25°C 30 min; read-out: Receptor Binding IC50 (nM) 5-HT1a
MEASURE: IC50
Just so you know, I need the unit written after the number.

The examples below pair each entry with its known result.
COc1ccccc1N1CCN(CCC(=O)N(C)c2cccc3c(=O)c(C)c(-c4ccccc4)oc23)CC1.CS(=O)(=O)O [Example 63, methanesulphonate] :: 99 nM
COc1ccccc1N1CCN(CCCNC(=O)c2cccc3c(=O)cc(-c4ccccc4)oc23)CC1 [Example 86] :: 20 nM
COc1ccccc1N1CCN(CCCNC(=O)c2cccc3c(=O)ccoc23)CC1 [Example 88] :: 11 nM
COc1ccccc1N1CCN(CCCCNS(=O)(=O)c2cccc3c(=O)c(C)c(-c4ccccc4)oc23)CC1.CS(=O)(=O)O.CS(=O)(=O)O [Example 67, dimethanesulphonate] :: 4 nM
COc1ccccc1N1CCN(CC(O)c2cccc3c(=O)c(C)c(-c4ccccc4)oc23)CC1.Cl (centres unmarked) [Example 17, hydrochloride] :: 910 nM

Give measured IC50 for every item shown.
1. COc1ccccc1N1CCN(CCNc2cccc3c(=O)c(C)c(-c4ccccc4)oc23)CC1.Cl.Cl [Example 32, dihydrochloride]
2. COc1ccccc1N1CCN(CCCC[S+]([O-])c2cccc3c(=O)c(C)c(-c4ccccc4)oc23)CC1.CS(=O)(=O)O (centres unmarked) [Example 73, methanesulphonate]
3. COc1ccccc1N1CCN(CCCNS(=O)(=O)c2cccc3c(=O)c(C)c(-c4ccccc4)oc23)CC1.CS(=O)(=O)O [Example 61, methanesulphonate]

Marked response:
1. 46 nM
2. 89 nM
3. 11 nM
